Data provenance is PubChem BioAssay (NCI).

Test system: OVCAR-8 ovarian
experimentDescription: NCI tumour cell line growth inhibition, 48 h
endpointLabel: TGI

# input Please report the recorded TGI for COC1(c2cccs2)c2ccccc2C(OC)(c2cccs2)c2ccccc21 (stereo not drawn) .
# output > 100 µM

# input Recorded TGI for `CNC1=C(C(=O)OC)SC(c2ccccc2)(c2ccccc2)SC1` , please?
# output > 100 µM

# input What measured TGI goes with `Cc1cc(C)c(S(=O)(=O)N(CCc2cccc(Br)c2)Cc2ccc(-c3cccc(S(C)(=O)=O)c3)cc2)c(C)c1` ?
# output > 100 µM

###

I'd appreciate it if you could supply TGI values for the items below.
System: M14 melanoma
experimentDescription: NCI tumour cell line growth inhibition, 48 h

# input What measured TGI goes with `CNC(=S)NNc1ncnc2c1ncn2-c1ccc(C)cc1` ?
# output > 100 µM

# input For the compound shown here, COP(=O)(O)C(N)Cc1c[nH]c2ccccc12 (stereo unspecified) , give the reported TGI.
# output > 100 µM

# input Looking for the measured TGI of `CN(C)c1ccc(/C=C/C(=O)O)cc1` , can you help?
# output > 100 µM

# input I would be grateful if you could share the reported TGI for `CC(C)C(=O)[O-].CC(C)C(=O)[O-].N.N.N.N.[Co+3].[O-][Cl+3]([O-])([O-])[O-]` .
# output > 100 µM

# input Could you tell me which TGI is on file for `CCNNC(=O)[C@@H]1[C@H](c2cc(OC)c(OC)c(OC)c2)c2cc3c(cc2[C@H](O)[C@H]1CO)OCO3` ?
# output > 100 µM

# input // lookup TGI for COc1cc2c(cc1OC)[C@@](C)(C(O)C(O)C(C)(C)O)NCC2 (stereo partly specified)
# output > 100 µM
